Measured polymerase ribozyme fitness (log ratio) of individual entries
B1: TPR t1 (parent)
chain: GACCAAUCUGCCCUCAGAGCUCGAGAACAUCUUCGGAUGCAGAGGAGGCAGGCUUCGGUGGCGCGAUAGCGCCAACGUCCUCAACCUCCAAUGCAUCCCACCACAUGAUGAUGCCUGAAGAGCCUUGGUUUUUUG

# Variants of: B1
# procedure summary: polymerase ribozyme fitness, log enrichment relative to wild type (log ratio); higher = more active; in vitro selection for triplet polymerase activity
Form: value (number only, do not type unit).

Note to self: polymerase ribozyme fitness (log ratio) recorded for G60A G61A C88A G120C A121U was -2.51
